# Tested on: human colorectal cancer cell line HT29
# ASSAY PROCEDURE: cells
# Type: cell-based
# ASSAY CONTEXT: Homo sapiens, HT-29; MTT, cultured for 48 hours; value (95% confidence limit); Table 2; read-out: IC50 Colorectal cancer HT-29
OUTCOME MEASURE: pIC50
Answers are plain numbers, as −log10 of the molar value.

List pIC50 for every entry below, keeping the order given.
1. Nc1nn(O)c2c(=O)n(C3OC(CO)C(O)C3O)nnc12 (centres unmarked) [Example 15]
2. CCCc1nn(C)c2c(=O)n(C3OC(COP(=O)(O)OP(=O)(O)OP(=O)(O)O)C(O)C3O)nnc12 (centres unmarked) [Example 135]
3. CCCc1nn(C(C(=O)O)P(=O)(OCC)OCC)c2c(=O)n(C3CCC(CO)O3)nnc12 (centres unmarked) [Example 82]
4. CCOC(=O)c1nn(CO)c2c(=O)n(C3OC3CO)nnc12 (centres unmarked) [Example 7]
5. Nc1nn(O)c2c(=O)n(C3CSC(CO)O3)nnc12 (centres unmarked) [Example 89]

1. 5.41
2. 4.75
3. 4.88
4. 4.73
5. 4.99

* * *

# System: human colorectal cancer cell line HT29
# ASSAY PROCEDURE: cells
# Type: cell-based
# ASSAY CONTEXT: Homo sapiens, HT-29; MTT, 48 hours; read-out: IC50 and 95% confidence limit, anti-proliferative effect on HT29
Hi there, I'd appreciate the recorded IC50 for every entry that follows.
One number for each entry, in µg/mL.

{"MOLECULE": "CCOC(=O)c1nn(CO)c2c(=O)n(C3OC3CO)nnc12 (centres unmarked)", "TESTED TARGET": "human colorectal cancer cell line HT29", "UNIT NAME": "µg/mL", "IC50": 18.8}
{"MOLECULE": "Nc1nn(O)c2c(=O)n(C3OC(CO)C(O)C3O)nnc12 (centres unmarked)", "TESTED TARGET": "human colorectal cancer cell line HT29", "UNIT NAME": "µg/mL", "IC50": 3.92}
{"MOLECULE": "CCCc1nn(C)c2c(=O)n(C3OC(COP(=O)(O)OP(=O)(O)OP(=O)(O)O)C(O)C3O)nnc12 (centres unmarked)", "TESTED TARGET": "human colorectal cancer cell line HT29", "UNIT NAME": "µg/mL", "IC50": 18}
{"MOLECULE": "Nc1nn(O)c2c(=O)n(C3CSC(CO)O3)nnc12 (centres unmarked)", "TESTED TARGET": "human colorectal cancer cell line HT29", "UNIT NAME": "µg/mL", "IC50": 13.1}

Next molecule, IC50 to be filled in.
Quick one: IC50 for CCCc1nn(C(C(=O)O)P(=O)(OCC)OCC)c2c(=O)n(C3CCC(CO)O3)nnc12 (centres unmarked) ?
10.2
